Test system: LOC_OS02G07810-cb001
experiment summary: thermal shift delta Tm vs DMSO control; higher = stronger stabilization (binding);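 also: purified Escherichia coli-expressed rice kinase domain construct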
applied conditions: 12.5 µM; protein concentration 2 µM
observable: thermal shift delta Tm (°C)
Numbers only, in °C.

Solved cases below.
[[record]]
compound = "Cc1c(C(=O)N2CCOc3ccc(-c4ccc(N)nc4)cc3C2)ccc(S(C)(=O)=O)c1F"
observable = "thermal shift delta Tm"
recorded_value = -0.03

[[record]]
compound = "COc1cc(Nc2c(C#N)cnc3cc(OCCCN4CCN(C)CC4)c(OC)cc23)c(Cl)cc1Cl [Bosutinib (SKI-606)]"
observable = "thermal shift delta Tm"
recorded_value = 0.38

[[record]]
compound = "O=C1Nc2ccc(CN3C(=O)CSC3=O)cc2/C1=C/c1cc(CN2CCOCC2)c[nH]1"
observable = "thermal shift delta Tm"
recorded_value = -0.68

[[record]]
compound = "CC(C)n1nc(-c2ccc3oc(N)nc3c2)c2c(N)ncnc21"
observable = "thermal shift delta Tm"
recorded_value = 0.31


Sure, the documented thermal shift delta Tm for Clc1ccc(C2(c3ccc(-c4cn[nH]c4)cc3)CCNCC2)cc1 is 1.21

====

Test system: LOC_OS03G12390-cb001
experiment summary: thermal shift delta Tm vs DMSO control; higher = stronger stabilization (binding)
applied conditions: 12.5 µM; protein concentration 2 µM
observable: thermal shift delta Tm (°C)
Give bare numbers, in °C.

Give thermal shift delta Tm for all molecules that follow.
1. C1=N/C2=N/c3ccc(OCCN4CCCC4)c(c3)COC/C=C/COCc3cccc(c3)C(=C1)N2 [Pacritinib (SB1518)]
2. CCOc1ccn(-c2ccc(F)cc2)c(=O)c1C(=O)Nc1ccc(Oc2ccnc(N)c2Cl)c(F)c1
3. O=C(O)[C@]1(Cc2cccc(Nc3nccs3)n2)CC[C@@H](Oc2cccc(Cl)c2F)CC1
4. CCCCCCCCCCCCCCCCn1cc[n+](Cc2ccccc2)c1C
5. Clc1ccc(Nc2nnc(Cc3ccncc3)c3ccccc23)cc1 [Vatalanib (PTK787) 2HCl]
6. CCn1c(-c2nonc2N)nc2cnc(Oc3cccc(NC(=O)c4ccc(OCCN5CCOCC5)cc4)c3)cc21

# output
1: 4.32; 2: 0.96; 3: 7.89; 4: -3.77; 5: -0.24; 6: 0.99

Need thermal shift delta Tm for each of these molecules.
1. C=CC(=O)Nc1ccc2ncnc(Nc3ccc(OCc4cccc(F)c4)c(Cl)c3)c2c1
2. COc1ccc(-c2ccc3c(N4CCOCC4)nc(N4C[C@@H](C)O[C@@H](C)C4)nc3n2)cc1CO
3. Nc1nccc(Oc2ccc(NC(=O)c3c[nH]cc(-c4ccc(F)cc4)c3=O)cc2F)c1Cl
4. C#Cc1cccc(Nc2ncnc3cc(OC)c(OCCCCCCC(=O)NO)cc23)c1
5. CC(C)NC(=O)COc1cccc(-c2nc(Nc3ccc4[nH]ncc4c3)c3ccccc3n2)c1
6. COc1cc2nccc(Oc3ccc(NC(=O)C4(C(=O)Nc5ccc(F)cc5)CC4)cc3)c2cc1OC
7. Cn1cc(-c2ccc3ncc(Cc4ccc5ncccc5c4)n3n2)cn1

# output
2.82
0.03
0.55
2.33
-0.25
0.4
-0.22

Batch request: thermal shift delta Tm for each of the following molecules.
1. COc1ccc(-c2cc3c(C)nc(N)nc3n([C@H]3CC[C@H](OCCO)CC3)c2=O)cn1
2. O=c1c(-c2ccc(O)cc2)coc2cc(O)cc(O)c12
3. COc1cc(F)c(F)c(Nc2ccc(I)cc2F)c1NS(=O)(=O)C1(C[C@H](O)CO)CC1 [Refametinib (RDEA119, Bay 86-9766)]
4. CN(C)Cc1cccc(N/C(=C2\C(=O)Nc3cc(C(N)=O)ccc32)c2ccccc2)c1

# output
1: 0.41; 2: 1.8; 3: 0.09; 4: 3.49

Lookup result for FC(F)(F)c1ccc(/C=C/c2nc(COc3ccc(CCCCn4ccnn4)cc3)co2)cc1 ; measured thermal shift delta Tm: 0
